B1: library; numbered along this chain (parent)
chain: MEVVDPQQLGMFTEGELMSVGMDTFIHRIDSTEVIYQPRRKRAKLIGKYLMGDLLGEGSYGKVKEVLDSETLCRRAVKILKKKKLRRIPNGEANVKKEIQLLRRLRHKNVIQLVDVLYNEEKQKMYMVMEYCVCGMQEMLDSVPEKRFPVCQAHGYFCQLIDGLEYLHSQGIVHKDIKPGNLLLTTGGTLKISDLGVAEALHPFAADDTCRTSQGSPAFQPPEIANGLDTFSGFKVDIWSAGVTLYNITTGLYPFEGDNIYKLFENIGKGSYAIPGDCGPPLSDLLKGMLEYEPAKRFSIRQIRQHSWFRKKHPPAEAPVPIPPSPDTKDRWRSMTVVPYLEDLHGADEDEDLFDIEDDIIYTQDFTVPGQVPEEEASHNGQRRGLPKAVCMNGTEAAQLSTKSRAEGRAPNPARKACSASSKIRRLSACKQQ

# Variants of: B1
# experimental-details: STK11 functional score (HeLa growth suppression), rescaled enrichment; synonymous median = 1, nonsense median = 0 (normalised score)
# assay-context: with HeLa; variant type: missense
measured-parameter: STK11 functional score
Please give the numeric answer without any surrounding text.

[Q] Item Y166D has what recorded STK11 functional score?
[A] -0.0245

[Q] For E293I then?
[A] 1.16

[Q] For R310P then?
[A] 0.954

[Q] For V116N then?
[A] 0.962

[Q] For I361V then?
[A] 1.6
